assayed.target: CYP2C8 (Homo sapiens)
Construct: tissue XenoTech; host or cells: pooled human liver microsomes
Sequence (P10632 whole entry): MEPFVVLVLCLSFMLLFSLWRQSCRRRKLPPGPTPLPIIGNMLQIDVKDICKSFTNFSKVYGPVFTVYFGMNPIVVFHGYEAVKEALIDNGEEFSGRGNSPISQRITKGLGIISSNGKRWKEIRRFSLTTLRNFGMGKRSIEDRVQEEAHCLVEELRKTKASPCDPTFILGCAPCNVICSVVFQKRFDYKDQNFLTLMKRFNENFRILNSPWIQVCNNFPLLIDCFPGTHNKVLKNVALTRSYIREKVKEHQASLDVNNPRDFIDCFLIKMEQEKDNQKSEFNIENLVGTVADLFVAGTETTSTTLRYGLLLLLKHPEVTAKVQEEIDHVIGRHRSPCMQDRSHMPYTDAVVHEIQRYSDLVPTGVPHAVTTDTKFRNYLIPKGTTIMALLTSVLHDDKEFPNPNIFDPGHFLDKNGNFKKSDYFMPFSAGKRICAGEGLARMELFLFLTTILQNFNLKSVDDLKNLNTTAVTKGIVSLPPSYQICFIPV
assay.procedure: Human liver CYP inhibition assay (cocktail, pooled HLM)
Format: in vitro ADME
observation.type: IC50

Q. Recall the recorded IC50 for C[C@@]1(O)CC[C@H]2[C@H](CC[C@@H]3[C@@H]2CC[C@]2(C)[C@@H](C(=O)Cn4cc(C#N)cn4)CC[C@@H]32)C1 [Zuranolone] with CYP2C8 (Homo sapiens) and state it.
A. > 30 µM

* * *

assayed.target: CYP3A4 (Homo sapiens, UniProt P08684)
Construct: tissue XenoTech; host or cells: pooled human liver microsomes
Sequence (P08684 whole entry): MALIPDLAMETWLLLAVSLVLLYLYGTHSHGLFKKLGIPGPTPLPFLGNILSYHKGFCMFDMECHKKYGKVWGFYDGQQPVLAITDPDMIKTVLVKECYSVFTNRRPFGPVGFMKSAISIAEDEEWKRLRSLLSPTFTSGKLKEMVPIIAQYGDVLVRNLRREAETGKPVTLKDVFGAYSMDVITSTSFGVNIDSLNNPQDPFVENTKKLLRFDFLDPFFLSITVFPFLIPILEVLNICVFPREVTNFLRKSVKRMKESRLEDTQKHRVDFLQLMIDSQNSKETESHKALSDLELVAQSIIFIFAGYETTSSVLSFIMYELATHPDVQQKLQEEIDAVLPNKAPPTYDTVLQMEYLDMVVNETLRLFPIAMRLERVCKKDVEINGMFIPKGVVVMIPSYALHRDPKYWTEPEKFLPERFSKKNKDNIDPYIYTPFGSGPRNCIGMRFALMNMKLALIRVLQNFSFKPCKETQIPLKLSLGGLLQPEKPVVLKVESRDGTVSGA
assay.procedure: Human liver CYP inhibition assay (cocktail, pooled HLM)
Type: in vitro ADME
Source text: The main materials used in this experiment were sourced as follows: Zuranolone from BEIWANTABIO Co., Ltd. (Shanghai, China); liver microsomes (rat and human) and CYP isoenzymes (CYP1A2, CYP2C8, CYP2D6, CYP3A4) from XenoTech (Tewksbury, MA, USA); LTK cells from the China Center for Type Culture Collection (CCTCC, Wuhan, China); and CHO cells from the National Certified Cell Bank (Shanghai, China). […]
observation.type: IC50

Q. Please look up its IC50: C[C@@]1(O)CC[C@H]2[C@H](CC[C@@H]3[C@@H]2CC[C@]2(C)[C@@H](C(=O)Cn4cc(C#N)cn4)CC[C@@H]32)C1
A. > 30 µM

* * *

assayed.target: α4β3δ GABAA receptor (Homo sapiens, UniProt P28472+P48169)
Construct: expressed in transfected cells; host or cells: CHO cells (transient expression)
Sequence (P48169 36-554): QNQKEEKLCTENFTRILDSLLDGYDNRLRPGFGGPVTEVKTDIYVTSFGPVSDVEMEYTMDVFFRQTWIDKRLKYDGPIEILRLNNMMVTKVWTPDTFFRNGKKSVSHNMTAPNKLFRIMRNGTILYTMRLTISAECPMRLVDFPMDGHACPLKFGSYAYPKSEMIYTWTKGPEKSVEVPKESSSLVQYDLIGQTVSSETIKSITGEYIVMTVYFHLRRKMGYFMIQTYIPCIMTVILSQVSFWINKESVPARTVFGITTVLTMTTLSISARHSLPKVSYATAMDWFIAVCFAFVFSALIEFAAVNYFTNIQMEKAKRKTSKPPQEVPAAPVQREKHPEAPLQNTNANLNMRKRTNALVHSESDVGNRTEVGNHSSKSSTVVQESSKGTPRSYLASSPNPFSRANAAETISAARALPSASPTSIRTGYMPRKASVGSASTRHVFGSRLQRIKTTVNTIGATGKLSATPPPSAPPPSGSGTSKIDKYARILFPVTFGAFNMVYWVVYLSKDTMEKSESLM
Sequence (P28472 26-473): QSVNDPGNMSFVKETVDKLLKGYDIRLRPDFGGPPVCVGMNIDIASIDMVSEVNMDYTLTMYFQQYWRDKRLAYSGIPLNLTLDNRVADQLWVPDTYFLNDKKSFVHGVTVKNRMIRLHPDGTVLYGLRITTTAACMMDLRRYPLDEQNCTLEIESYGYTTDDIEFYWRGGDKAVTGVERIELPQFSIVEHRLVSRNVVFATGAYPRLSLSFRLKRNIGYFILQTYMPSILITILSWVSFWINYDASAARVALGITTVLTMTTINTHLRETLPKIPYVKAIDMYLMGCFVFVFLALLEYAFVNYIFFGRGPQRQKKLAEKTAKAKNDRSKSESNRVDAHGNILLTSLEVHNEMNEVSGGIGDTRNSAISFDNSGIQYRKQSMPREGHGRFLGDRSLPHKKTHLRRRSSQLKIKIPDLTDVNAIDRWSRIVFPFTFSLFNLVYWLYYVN
Sequence (O14764 25-452 partner): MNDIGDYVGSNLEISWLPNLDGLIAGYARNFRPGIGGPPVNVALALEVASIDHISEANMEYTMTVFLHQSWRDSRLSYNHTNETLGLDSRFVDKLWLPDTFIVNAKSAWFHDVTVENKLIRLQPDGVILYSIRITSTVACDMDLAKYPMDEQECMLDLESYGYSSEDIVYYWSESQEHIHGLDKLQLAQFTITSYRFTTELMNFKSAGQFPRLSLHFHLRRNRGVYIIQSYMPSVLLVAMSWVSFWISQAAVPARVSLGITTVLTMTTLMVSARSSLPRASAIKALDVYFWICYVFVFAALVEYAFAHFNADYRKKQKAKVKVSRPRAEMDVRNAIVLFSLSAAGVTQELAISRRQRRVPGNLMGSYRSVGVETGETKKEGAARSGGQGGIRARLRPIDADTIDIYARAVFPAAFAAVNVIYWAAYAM
assay.procedure: Whole-cell electrophysiology of GABA-evoked currents, CHO cells
Format: cell-based
stated.conditions: CHO cells, 1 μmol/L GABA (EC20), n = 3; read-out: α4β3δ EC50
Assignment: determine reported EC50 for the given compounds.
Number only, in nM; omit the unit.

Q. Please look up its EC50: C[C@@]1(O)CC[C@H]2[C@H](CC[C@@H]3[C@@H]2CC[C@]2(C)[C@@H](C(=O)Cn4cnn(-c5cccnc5)c4=O)CC[C@@H]32)C1 [S5]
A. 61

Q. Now consider C[C@@]1(O)CC[C@H]2[C@H](CC[C@@H]3[C@@H]2CC[C@]2(C)[C@@H](C(=O)Cn4cnn(-c5ccnc(C(F)F)c5)c4=O)CC[C@@H]32)C1 [S8] .
A. 49

Q. Now consider C[C@@]1(O)CC[C@H]2[C@H](CC[C@@H]3[C@@H]2CC[C@]2(C)[C@@H](C(=O)Cn4cnn(-c5cc(F)cc(C#N)c5)c4=O)CC[C@@H]32)C1 [S13] .
A. 37

* * *

assay.procedure: Liver microsome metabolic stability (HLM)
Format: in vitro ADME, human
stated.conditions: pH 7.4; human liver microsomes; read-out: HLM T1/2
observation.type: half-life at 1 µM (min)
Number only, in min; omit the unit.

Q. Please look up its half-life at 1 µM: COCCn1ncn(CC(=O)[C@H]2CC[C@H]3[C@@H]4CC[C@@H]5C[C@](C)(O)CC[C@@H]5[C@H]4CC[C@]23C)c1=O [S1]
A. 34

* * *

assayed.target: α1β2γ2 GABAA receptor (Homo sapiens, UniProt P14867+P47870)
Construct: expressed in transfected cells
Sequence (P14867 28-456): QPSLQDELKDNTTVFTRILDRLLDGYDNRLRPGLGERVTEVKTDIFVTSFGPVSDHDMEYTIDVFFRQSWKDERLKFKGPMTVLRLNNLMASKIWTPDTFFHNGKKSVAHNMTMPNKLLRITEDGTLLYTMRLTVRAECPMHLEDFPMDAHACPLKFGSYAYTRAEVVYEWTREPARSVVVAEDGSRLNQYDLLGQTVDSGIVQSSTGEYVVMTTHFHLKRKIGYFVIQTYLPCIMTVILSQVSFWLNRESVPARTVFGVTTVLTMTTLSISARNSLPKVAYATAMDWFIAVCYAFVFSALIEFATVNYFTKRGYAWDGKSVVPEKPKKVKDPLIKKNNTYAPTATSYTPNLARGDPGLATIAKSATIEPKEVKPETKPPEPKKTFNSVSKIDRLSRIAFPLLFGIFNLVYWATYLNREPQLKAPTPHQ
Sequence (P47870 25-512 limits assumed): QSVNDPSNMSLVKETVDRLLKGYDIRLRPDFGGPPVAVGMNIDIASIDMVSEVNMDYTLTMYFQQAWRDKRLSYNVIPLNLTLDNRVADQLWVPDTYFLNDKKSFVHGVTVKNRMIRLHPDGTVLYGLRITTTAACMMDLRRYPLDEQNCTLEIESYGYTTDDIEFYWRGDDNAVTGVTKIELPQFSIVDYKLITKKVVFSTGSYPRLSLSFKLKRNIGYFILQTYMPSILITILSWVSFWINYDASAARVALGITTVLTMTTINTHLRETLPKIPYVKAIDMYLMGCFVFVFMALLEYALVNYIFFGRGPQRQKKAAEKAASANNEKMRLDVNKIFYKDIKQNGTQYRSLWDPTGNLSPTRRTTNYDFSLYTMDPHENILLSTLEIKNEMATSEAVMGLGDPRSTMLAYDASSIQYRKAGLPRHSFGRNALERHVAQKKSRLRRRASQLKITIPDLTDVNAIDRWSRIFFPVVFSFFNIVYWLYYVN
Sequence (P18507 40-475 partner): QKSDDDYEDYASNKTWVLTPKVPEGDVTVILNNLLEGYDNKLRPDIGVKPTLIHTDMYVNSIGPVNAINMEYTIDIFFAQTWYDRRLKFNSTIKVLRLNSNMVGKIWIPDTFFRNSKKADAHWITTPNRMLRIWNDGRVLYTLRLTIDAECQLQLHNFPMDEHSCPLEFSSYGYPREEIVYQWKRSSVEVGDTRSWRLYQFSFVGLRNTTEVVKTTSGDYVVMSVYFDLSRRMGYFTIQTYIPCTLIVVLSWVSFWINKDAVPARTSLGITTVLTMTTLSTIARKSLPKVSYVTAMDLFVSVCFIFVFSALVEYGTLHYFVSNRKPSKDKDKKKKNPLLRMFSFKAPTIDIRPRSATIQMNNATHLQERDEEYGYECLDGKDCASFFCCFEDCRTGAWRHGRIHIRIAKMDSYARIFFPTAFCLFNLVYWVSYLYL
assay.procedure: Whole-cell electrophysiology of GABA-evoked currents, LTK cells
Type: cell-based
stated.conditions: LTK cells, current induced by 1 μmol/L GABA = 100%, n = 3
observation.type: Emax (%)
Number only, in %; omit the unit.

Q. Please look up its Emax: C[C@@]1(O)CC[C@H]2[C@H](CC[C@@H]3[C@@H]2CC[C@]2(C)[C@@H](C(=O)Cn4cc(C#N)cn4)CC[C@@H]32)C1 [Zuranolone]
A. 894

Q. Now consider C[C@@]1(O)CC[C@H]2[C@H](CC[C@@H]3[C@@H]2CC[C@]2(C)[C@@H](C(=O)Cn4ncn(CC5CC5)c4=O)CC[C@@H]32)C1 [S2] .
A. 320

Q. Now consider COc1ccc(-n2ncn(CC(=O)[C@H]3CC[C@H]4[C@@H]5CC[C@@H]6C[C@](C)(O)CC[C@@H]6[C@H]5CC[C@]34C)c2=O)cn1 [S3] .
A. 389

* * *

assayed.target: α4β3δ GABAA receptor (Homo sapiens, UniProt P28472+P48169)
Construct: expressed in transfected cells; host or cells: CHO cells (transient expression)
assay.procedure: Whole-cell electrophysiology of GABA-evoked currents, CHO cells
Assay type: cell-based
stated.conditions: CHO cells, 1 μmol/L GABA (EC20), n = 3; read-out: α4β3δ EC50
pEC50: −log10 of the molar value.
Entry flag: Met if pEC50 reaches 7; Not met if it does not.

Q. Tell me whether pEC50 is at least 7 here: C[C@@]1(O)CC[C@H]2[C@H](CC[C@@H]3[C@@H]2CC[C@]2(C)[C@@H](C(=O)Cn4c(=O)n(-c5ccccc5)c5ccccc54)CC[C@@H]32)C1
A. Met

Q. Now consider Cc1cc(-n2ncn(CC(=O)[C@H]3CC[C@H]4[C@@H]5CC[C@@H]6C[C@](C)(O)CC[C@@H]6[C@H]5CC[C@]34C)c2=O)cc(C)n1 .
A. Met

Q. Now consider C[C@@]1(O)CC[C@H]2[C@H](CC[C@@H]3[C@@H]2CC[C@]2(C)[C@@H](C(=O)Cn4cnn(-c5ccnc(OCC(F)(F)F)c5)c4=O)CC[C@@H]32)C1 .
A. Met

Q. Now consider C[C@@]1(O)CC[C@H]2[C@H](CC[C@@H]3[C@@H]2CC[C@]2(C)[C@@H](C(=O)Cn4cnn(CCOC(F)(F)F)c4=O)CC[C@@H]32)C1 .
A. Not met

* * *

assay.procedure: Liver microsome metabolic stability (RLM)
Assay type: in vitro ADME, rat
stated.conditions: pH 7.4; rat liver microsomes; read-out: RLM T1/2
Assignment: determine reported half-life at 1 μmol/L for the given molecules.
Enter the number, and then the unit.

Q. Please look up its half-life at 1 μmol/L: COc1ccc(-n2ncn(CC(=O)[C@H]3CC[C@H]4[C@@H]5CC[C@@H]6C[C@](C)(O)CC[C@@H]6[C@H]5CC[C@]34C)c2=O)cn1
A. 16 min

Q. Now consider C[C@@]1(O)CC[C@H]2[C@H](CC[C@@H]3[C@@H]2CC[C@]2(C)[C@@H](C(=O)Cn4cnn(-c5ccnc(C(F)F)c5)c4=O)CC[C@@H]32)C1 .
A. 29 min

Q. Now consider C[C@@]1(O)CC[C@H]2[C@H](CC[C@@H]3[C@@H]2CC[C@]2(C)[C@@H](C(=O)Cn4cnn(-c5cc(F)cc(C#N)c5)c4=O)CC[C@@H]32)C1 .
A. 90 min

Q. Now consider C[C@@]1(O)CC[C@H]2[C@H](CC[C@@H]3[C@@H]2CC[C@]2(C)[C@@H](C(=O)Cn4cnn(-c5cccc(C(N)=O)c5)c4=O)CC[C@@H]32)C1 .
A. 18 min

Q. Now consider C[C@@]1(O)CC[C@H]2[C@H](CC[C@@H]3[C@@H]2CC[C@]2(C)[C@@H](C(=O)Cn4c(=O)n(-c5ccccc5)c5ccccc54)CC[C@@H]32)C1 .
A. 210 min

Q. Now consider C[C@@]1(O)CC[C@H]2[C@H](CC[C@@H]3[C@@H]2CC[C@]2(C)[C@@H](C(=O)Cn4cnn(CCOC(F)(F)F)c4=O)CC[C@@H]32)C1 .
A. 23 min

Q. Now consider C[C@@]1(O)CC[C@H]2[C@H](CC[C@@H]3[C@@H]2CC[C@]2(C)[C@@H](C(=O)Cn4cnn(-c5ccnc(OCC(F)(F)F)c5)c4=O)CC[C@@H]32)C1 .
A. 186 min

Q. Now consider C[C@@]1(O)CC[C@H]2[C@H](CC[C@@H]3[C@@H]2CC[C@]2(C)[C@@H](C(=O)Cn4cnn(-c5cc(Cl)ccn5)c4=O)CC[C@@H]32)C1 .
A. 21 min

* * *

assayed.target: α1β2γ2 GABAA receptor (Homo sapiens, UniProt P14867+P47870)
Construct: expressed in transfected cells
assay.procedure: Whole-cell electrophysiology of GABA-evoked currents, LTK cells
Format: cell-based
stated.conditions: LTK cells, 1 μmol/L GABA (EC20), n = 3; read-out: α1β2γ2 EC50
Returns: string. Value is true if measured EC50 is below 200 nM, and false if it is greater than or equal to it.

Q. Item C[C@@]1(O)CC[C@H]2[C@H](CC[C@@H]3[C@@H]2CC[C@]2(C)[C@@H](C(=O)Cn4cnn(-c5ccnc(C(F)F)c5)c4=O)CC[C@@H]32)C1 : EC50 beneath 200 nM, strictly?
A. true

Q. Now consider C[C@@]1(O)CC[C@H]2[C@H](CC[C@@H]3[C@@H]2CC[C@]2(C)[C@@H](C(=O)Cn4cnn(-c5cc(F)cc(C#N)c5)c4=O)CC[C@@H]32)C1 .
A. true

Q. Now consider C[C@@]1(O)CC[C@H]2[C@H](CC[C@@H]3[C@@H]2CC[C@]2(C)[C@@H](C(=O)Cn4cnn(-c5cc(Cl)ccn5)c4=O)CC[C@@H]32)C1 .
A. true

Q. Now consider C[C@@]1(O)CC[C@H]2[C@H](CC[C@@H]3[C@@H]2CC[C@]2(C)[C@@H](C(=O)Cn4ncn(CC5CC5)c4=O)CC[C@@H]32)C1 .
A. true

Q. Now consider C[C@@]1(O)CC[C@H]2[C@H](CC[C@@H]3[C@@H]2CC[C@]2(C)[C@@H](C(=O)Cn4c(=O)n(-c5ccccc5)c5ccccc54)CC[C@@H]32)C1 .
A. true

Q. Now consider C[C@@]1(O)CC[C@H]2[C@H](CC[C@@H]3[C@@H]2CC[C@]2(C)[C@@H](C(=O)Cn4cnn(-c5ccnc(OCC(F)(F)F)c5)c4=O)CC[C@@H]32)C1 .
A. true

Q. Now consider C[C@@]1(O)CC[C@H]2[C@H](CC[C@@H]3[C@@H]2CC[C@]2(C)[C@@H](C(=O)Cn4ncn(-c5ccc(F)cc5)c4=O)CC[C@@H]32)C1 .
A. true

Q. Now consider C[C@@]1(O)CC[C@H]2[C@H](CC[C@@H]3[C@@H]2CC[C@]2(C)[C@@H](C(=O)Cn4cnn(-c5cccnc5)c4=O)CC[C@@H]32)C1 .
A. false

Q. Now consider C[C@@]1(O)CC[C@H]2[C@H](CC[C@@H]3[C@@H]2CC[C@]2(C)[C@@H](C(=O)Cn4cnn(-c5cccc(C(N)=O)c5)c4=O)CC[C@@H]32)C1 .
A. true

Q. Now consider COCCn1ncn(CC(=O)[C@H]2CC[C@H]3[C@@H]4CC[C@@H]5C[C@](C)(O)CC[C@@H]5[C@H]4CC[C@]23C)c1=O .
A. false

Q. Now consider COc1ccc(-n2ncn(CC(=O)[C@H]3CC[C@H]4[C@@H]5CC[C@@H]6C[C@](C)(O)CC[C@@H]6[C@H]5CC[C@]34C)c2=O)cn1 .
A. true

Q. Now consider C[C@@]1(O)CC[C@H]2[C@H](CC[C@@H]3[C@@H]2CC[C@]2(C)[C@@H](C(=O)Cn4cnn(CCOC(F)(F)F)c4=O)CC[C@@H]32)C1 .
A. false

Q. Now consider Cc1cc(-n2ncn(CC(=O)[C@H]3CC[C@H]4[C@@H]5CC[C@@H]6C[C@](C)(O)CC[C@@H]6[C@H]5CC[C@]34C)c2=O)cc(C)n1 .
A. true
